Would you mind telling me the reported Ki of each entry?
Record the value in nM, omitting the unit from your answer.

Bench note, Sigma1 (Homo sapiens, UniProt Q99720): COC(=O)c1ccc(NC(=N)NCC(C)(C)COc2ccc(C(F)(F)F)cc2)nc1 , Ki reads 18

Reading of Ki for CC(C)(CCNC(=N)Nc1cnc(C(F)(F)F)nc1)Oc1ccc(C(F)(F)F)cc1 with Sigma1 (Homo sapiens, UniProt Q99720): 35

Measured on Sigma1 (Homo sapiens, UniProt Q99720), COc1cc(NC(=N)NCCC(C)(C)Oc2ccc(C(F)(F)F)cc2)cnc1C#N [Compound J] has a documented Ki of 7

Record CC(C)(CCNC(=N)Nc1ccc(Cl)c(Cl)c1)Oc1ccc(C(F)(F)F)cc1 has Sigma1 (Homo sapiens, UniProt Q99720) Ki equal to 8

Entry COC(=O)c1ccc(NC(=N)NCCC(C)(C)c2ccc(C(F)(F)F)cc2)nc1 , Sigma1 (Homo sapiens, UniProt Q99720) data, Ki value: 3

COc1cc(NC(=N)NCCC(C)(C)Oc2ccc(C(F)(F)F)cc2)cnc1C#N [Compound A] tested on Sigma1 (Homo sapiens, UniProt Q99720) gave Ki: 9

With Sigma1 (Homo sapiens, UniProt Q99720) as the test system, COc1cc(NC(=N)NCCC(C)(C)c2ccc(C(F)(F)F)cc2)ncc1C#N showed Ki of 11

Response field Ki (Sigma1 (Homo sapiens, UniProt Q99720)) for item CC(C)(CCNC(=N)Nc1cnc(Cl)c(F)c1)Oc1ccc(C(F)(F)F)cc1 : 5

---

# Tested on: SARS-CoV-2
# Procedure Text: Infection of Huh7.5 cells by replication competent SARS-CoV-2, qRT-PCR
# Format: cell-based
# Stated Conditions: 10 μM, 24 hours post inoculation, FIG. 3
Measurement Name: effect on SARS-CoV-2 infection (in words)

[
  {
    "Compound": "O=C(OCCN1CCOCC1)C1(c2ccccc2)CCCCC1 [PRE084, reference compound]",
    "Result": "did not block infection"
  },
  {
    "Compound": "COc1ccc(CCN2CCN(CCCc3ccccc3)CC2)cc1OC [SA4503, reference compound]",
    "Result": "did not block infection"
  }
]

---

Measurement Name: pIC50
API: returns pIC50 as number; meaning -log10 of concentration in mol/L.

Androgen Receptor (Homo sapiens) data for CC(C)(CCNC(=N)Nc1ccc(Cl)c(Cl)c1)Oc1ccc(C(F)(F)F)cc1 [Compound D] ; its pIC50: 5.52

Param item: COC(=O)c1ccc(NC(=N)NCC(C)(C)COc2ccc(C(F)(F)F)cc2)nc1 [Compound H] ; param system: Androgen Receptor (Homo sapiens); output pIC50: 5.54

The molecule COC(=O)c1ccc(NC(=N)NCCC(C)(C)c2ccc(C(F)(F)F)cc2)nc1 [Compound G] , tested on Androgen Receptor (Homo sapiens), showed pIC50 of 5.55

Measured pIC50 (Androgen Receptor (Homo sapiens)), entry COc1cc(NC(=N)NCCC(C)(C)c2ccc(C(F)(F)F)cc2)ncc1C#N [Compound F] : 5.52

# value of pIC50, Androgen Receptor (Homo sapiens), item COc1cc(NC(=N)NCC(C)(C)COc2ccc(C(F)(F)F)cc2)cnc1C#N [Compound B] = 5.00
